# key: entry, value: melting point
endpoint: melting point

compound="COc1c(C)c2c(c(O)c1C/C=C(\\C)CCC(=O)Nc1ccc3ncsc3c1)C(=O)OC2 [A4, N-(benzo[d]thiazol-6-yl) mycophenolate]" endpoint="melting point" recorded_measurement="175 to 177 °C"
compound=COc1c(C)c2c(c(O)c1C/C=C(\C)CCC(=O)Nc1nc3ccc([N+](=O)[O-])cc3s1)C(=O)OC2 endpoint="melting point" recorded_measurement="278 to 280 °C (dec.)"
compound="COc1c(C)c2c(c(O)c1C/C=C(\\C)CCC(=O)Nc1ccc3ocnc3c1)C(=O)OC2 [A6, N-(benzo[d]oxazol-5-yl) mycophenolate]" endpoint="melting point" recorded_measurement="84 to 87 °C"
compound=COc1c(C)c2c(c(O)c1C/C=C(\C)CCC(=O)Nc1nc3ccc(C(F)(F)F)cc3s1)C(=O)OC2 endpoint="melting point" recorded_measurement="261 to 264 °C (dec.)"
compound=COc1c(C)c2c(c(O)c1C/C=C(\C)CCC(=O)Nc1nc3c(C)cccc3s1)C(=O)OC2 endpoint="melting point" recorded_measurement="173 to 176 °C"
compound=COc1c(C)c2c(c(O)c1C/C=C(\C)CCC(=O)NCc1ncccn1)C(=O)OC2 endpoint="melting point" recorded_measurement="107 to 110 °C"

###

# System: T-Jurkat cells
# protocol-description: Dye-based proliferation assay VPD450 (flow cytometry), T-Jurkat
# Assay type: cell-based, human
# measurement-setup: Homo sapiens, 48 h
pEC50: −log10 of the molar value.
endpoint: pEC50

compound_string=COc1c(C)c2c(c(O)c1C/C=C(\C)CCC(=O)Nc1nc3ccc(Br)cc3s1)C(=O)OC2 recorded_measurement=4.90
compound_string=COc1c(C)c2c(c(O)c1C/C=C(\C)CCC(=O)NCc1ncccn1)C(=O)OC2 recorded_measurement=5.02
compound_string=COc1c(C)c2c(c(O)c1C/C=C(\C)CCC(=O)Nc1nc3c(Cl)cccc3s1)C(=O)OC2 recorded_measurement=4.95
compound_string=COc1c(C)c2c(c(O)c1C/C=C(\C)CCC(=O)Nc1nc3ccc([N+](=O)[O-])cc3s1)C(=O)OC2 recorded_measurement=4.87
compound_string=COc1c(C)c2c(c(O)c1C/C=C(\C)CCC(=O)Nc1nc3ccc(Cl)cc3s1)C(=O)OC2 recorded_measurement=4.92
